Tested on: LOX IMVI melanoma
protocol.summary: NCI tumour cell line growth inhibition, 48 h
property.name: log10 TGI (log10 of the value in µM)

compound | measured
O=c1oc2c(Br)c(O)c(Br)cc2c2ccccc12 | 1.84
CCN(CC)CCC(CNc1c2ccc([N+](=O)[O-])cc2nc2cc(OC)c(OC)cc12)c1ccccc1 (configuration not stated) | 0.27
CCCCN(CCCC)c1cc(C(=O)CCCCCN)c2ccccc2n1 | 0.50
Nc1nn(C(=O)Nc2ccc(Cc3ccccc3)cc2)c2ccc(Cl)cc12 | 1.30
CC(/C=C/C=C/C=C/C=C/C=C/C(O)=C1/C(=O)C(CCC(=O)O)N(C)C1=O)=C\C(C)C(OC1CC(O)C(O)C(C)O1)C(C)C (configuration not stated) | 1.06
C#CCn1c(=O)c(C)cn(/C(=C/C(=O)OCC)C(=O)OCC)c1=O | 1.47
CNC(=O)c1cc(Oc2ccc3nc(NC(=O)c4cc(C(F)(F)F)cc(C(F)(F)F)c4)sc3c2)ccn1 | 1.18
CC(C)(C)C1CCC2c3c([nH]c4ccccc34)C3C(=O)N(c4cccc(Cl)c4)C(=O)C3C2C1 (configuration not stated) | 1.32
COC1OC(COCc2ccc(Cl)cc2)C(OCc2ccc(Cl)cc2)C1O (configuration not stated) | 1.52

###

Tested on: COLO 205 colon
protocol.summary: NCI tumour cell line growth inhibition, 48 h; in the data active means GI50 below about 0.43 µM; inactive means the rest
Outcome codes: Yes (active), No (inactive)

smiles.input | classification
O=C(/C=C/c1ccccc1Cl)c1ccc(O)cc1 | No
C=CC[Se]C(=O)c1ccccc1OC(C)=O | No
CCC[CH2][Sn]([CH2]CCC)([O]C(=O)c1cc(OC)c(OC)c(OC)c1)[O]C(=O)c1cc(OC)c(OC)c(OC)c1 | No
Cc1cc(N2CCOCC2)nc(N(CCNc2ccnc3cc(Cl)ccc23)Cc2ccco2)n1 | No
C[C@H](Nc1ccc(C#N)n(C)c1=O)c1cc2cc(Cl)ccc2[nH]c1=O | No
CNC(=O)c1cc(Oc2ccc3nc(NC(=O)c4cc(C(F)(F)F)cc(C(F)(F)F)c4)sc3c2)ccn1 | No
Clc1ccc(-c2nc(-c3c[nH]c4ncccc34)cs2)cc1 | No
COc1cc2c3c(n(CCCN=[N+]=[N-])c(=O)c2cc1OC)-c1ccc(N)cc1C3=O | Yes
S=C(Nc1ccc(-c2nc3ccccc3s2)cc1)Nc1ccccn1 | No
Cc1nc(NC(=O)COc2cccc(/C=C3\COc4ccccc4C3=O)c2)sc1C | No

###

Tested on: MALME-3M melanoma
protocol.summary: NCI tumour cell line growth inhibition, 48 h

compound | TGI
C[C@H]1O[C@@H](O[C@H]2[C@@H](O)C[C@H](O[C@H]3[C@@H](O)C[C@H](O[C@H]4CC[C@]5(C)C6C[C@@H](O)[C@]7(C)[C@@H](C8=CC(=O)OC8)CC[C@]7(O)C6CC[C@@H]5C4)O[C@@H]3C)O[C@@H]2C)C[C@H](O)[C@@H]1O (some centres undefined) | 0.262 µM
COc1ccc(C2Cc3cc(OC)c(OC)c(OC)c3C2=O)cc1 (centres undefined) | > 100 µM
CC(C)(C)C1CCC2c3c([nH]c4ccccc34)C3C(=O)N(c4cccc(Cl)c4)C(=O)C3C2C1 (centres undefined) | 32.4 µM
CC1C(=O)CCC1C(Sc1ccccc1)(Sc1ccccc1)Sc1ccccc1 (centres undefined) | > 100 µM
C=CCOC1=C2CC[C@H](O)[C@@]2(C)CCC1=O | > 100 µM
NC(=O)ON=C1CCN(Cc2ccccc2)CC1 | > 100 µM
CCOC(=O)c1ccc(-c2cccs2)n1C | > 100 µM
C=CC[Se]C(=O)c1ccccc1OC(C)=O | 3.38 µM
Nn1c(-c2ccccc2Nc2ccccc2-c2n[nH]c(=S)n2N)n[nH]c1=S | > 50 µM
